variants and their reported self-cleavage
B1: CPEB3 Ribozyme (parent)
chain: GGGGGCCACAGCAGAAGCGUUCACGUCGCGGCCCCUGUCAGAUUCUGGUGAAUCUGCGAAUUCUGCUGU

Variants of: B1
Test: self-cleavage, relative activity (ratio to wild type); higher = more cleavage; co-transcriptional
The reply should be a number, written without any unit.

Record excerpt, results attached:
C33A G41A    0.349
C35U G68U    1.01
U20C U55A    0.175
C6U A60G    0.85
C34A U43A    0.514

Field: next variant
Record G31A U43C , field self-cleavage: 0.601
